// reported IC50 for each item listed
assayed.system: BTK (Homo sapiens (Human), UniProt Q06187)
Sequence (Q06187 whole entry): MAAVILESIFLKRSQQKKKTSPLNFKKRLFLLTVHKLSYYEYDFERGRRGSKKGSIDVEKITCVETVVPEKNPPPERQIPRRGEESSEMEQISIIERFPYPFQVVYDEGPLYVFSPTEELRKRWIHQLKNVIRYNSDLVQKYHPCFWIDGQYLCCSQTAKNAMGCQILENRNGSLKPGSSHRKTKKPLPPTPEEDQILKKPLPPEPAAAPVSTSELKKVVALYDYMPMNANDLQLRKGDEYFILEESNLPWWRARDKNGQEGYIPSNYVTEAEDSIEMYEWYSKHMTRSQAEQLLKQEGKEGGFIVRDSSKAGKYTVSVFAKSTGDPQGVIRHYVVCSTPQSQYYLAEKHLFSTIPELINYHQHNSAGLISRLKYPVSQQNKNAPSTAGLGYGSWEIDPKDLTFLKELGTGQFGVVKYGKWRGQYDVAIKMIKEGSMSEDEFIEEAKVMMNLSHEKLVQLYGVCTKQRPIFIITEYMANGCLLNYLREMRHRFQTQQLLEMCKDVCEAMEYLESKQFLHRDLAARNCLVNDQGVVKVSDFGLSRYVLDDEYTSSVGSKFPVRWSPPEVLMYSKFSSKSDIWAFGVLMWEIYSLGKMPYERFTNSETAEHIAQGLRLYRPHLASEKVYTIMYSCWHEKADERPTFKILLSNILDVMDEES
Returns: string containing the numeric result and its unit.

INSERT INTO assay_data (compound, assayed_system, result) VALUES
  ('Nc1ncnc2c1c(-c1ccc(Oc3ccccc3)cc1)nn2C1CCN(C(=O)/C=C/CN2CCOCC2)CC1 [Compound 20]', 'BTK (Homo sapiens (Human), UniProt Q06187)', '4.07 nM'),
  ('C=CC(=O)N1CCC[C@H]1Cn1nc(-c2ccc(Oc3ccccc3)cc2)c2c(N)ncnc21 [Compound 14]', 'BTK (Homo sapiens (Human), UniProt Q06187)', '0.39 nM'),
  ('C=CC(=O)N1CCC[C@@H]1Cn1nc(-c2ccc(Oc3ccccc3)cc2)c2c(N)ncnc21 [Compound 13]', 'BTK (Homo sapiens (Human), UniProt Q06187)', '0.67 nM'),
  ('CN(C)C/C=C/C(=O)N1CCC[C@H]1Cn1nc(-c2ccc(Oc3ccccc3)cc2)c2c(N)ncnc21 [Compound 12]', 'BTK (Homo sapiens (Human), UniProt Q06187)', '1.33 nM');

Prompt: Find IC50 (BTK (Homo sapiens (Human), UniProt Q06187)) for the entry Nc1ncnc2c1c(-c1ccc(Oc3ccccc3)cc1)nn2[C@@H]1CCCN(C(=O)/C=C/CN2CCOCC2)C1 [Compound 24]
Completion: 0.89 nM

Prompt: Fill in the recorded IC50 for this compound, with BTK (Homo sapiens (Human), UniProt Q06187) as test system: Nc1ncnc2c1c(-c1ccc(Oc3ccccc3)cc1)nn2C[C@@H]1CCCN1C(=O)/C=C/CN1CCOCC1 [Compound 21]
Completion: 4.15 nM

Prompt: Give IC50 (BTK (Homo sapiens (Human), UniProt Q06187)) of the following compound: Nc1ncnc2c1c(-c1ccc(Oc3ccccc3)cc1)nn2[C@H]1CC[C@@H](NC(=O)/C=C/CN2CCOCC2)CC1 [Compound 25]
Completion: 3.48 nM
